target-of-assay: HLA-C*07:02
assay-procedure: IEDB peptide-MHC binding, purified MHC/direct/fluorescence; filed as Kd, often an IC50 or EC50 that approximates it; bounds were set here for any values at or beyond the usual limits of such assays
reported-conditions: source organism: Yersinia pestis Nepal516
metric-name: pKd
# reply with the number alone; pKd is -log10 of concentration in mol/L

Req: Field request: pKd | item: "YIYTRSFQM"
Resp: 6.79

====

target-of-assay: HLA-B*58:01
assay-procedure: IEDB peptide-MHC binding, purified MHC/direct/fluorescence; filed as Kd, often an IC50 or EC50 that approximates it; bounds were set here for any values at or beyond the usual limits of such assays
reported-conditions: source organism: Camelpox virus M-96
List of pKd values.
pKd here: minus log base 10 of the concentration, concentration in moles per litre.

[
  {
    "biosequence": "KSTSPTRTW",
    "target-of-assay": "HLA-B*58:01",
    "metric-name": "pKd",
    "observed": 7.46
  }
]

Req: Item: "KSISSIFGY" Test system: HLA-B*58:01 Read-out: pKd Value: ?
Resp: 8.82

====

target-of-assay: HLA-B*08:01
assay-procedure: IEDB peptide-MHC binding, purified MHC/direct/fluorescence; filed as Kd, often an IC50 or EC50 that approximates it; bounds were set here for any values at or beyond the usual limits of such assays
reported-conditions: source organism: Influenza A virus (A/Viet Nam/HN/2004(H5N1))
metric-name: Kd

Req: Query (sequence): "VSPLAVTWW" ; field requested: Kd
Resp: ≥ 20 µM

====

target-of-assay: HLA-A*32:01
assay-procedure: IEDB peptide-MHC binding, purified MHC/competitive/radioactivity; filed as Kd, often an IC50 or EC50 that approximates it; bounds were set here for any values at or beyond the usual limits of such assays
reported-conditions: source organism: Mammarenavirus guanaritoense
metric-name: Kd

Req: Item "MLDDLTMGY" with HLA-A*32:01 - Kd?
Resp: 2.14 µM

====

target-of-assay: HLA-B*51:01
assay-procedure: IEDB peptide-MHC binding, purified MHC/competitive/fluorescence; filed as Kd, often an IC50 or EC50 that approximates it; bounds were set here for any values at or beyond the usual limits of such assays
reported-conditions: source organism: Rickettsia typhi str. Wilmington
metric-name: Kd (nM)
Quick note: give the figure in nM, leave out the unit.

Req: What does the data say about its Kd? Entry: "IPNDFKELV"
Resp: 446

====

target-of-assay: HLA-A*02:03
assay-procedure: IEDB peptide-MHC binding, purified MHC/competitive/fluorescence; filed as Kd, often an IC50 or EC50 that approximates it; bounds were set here for any values at or beyond the usual limits of such assays
reported-conditions: source organism: Campylobacter jejuni subsp. jejuni NCTC 11168 = ATCC 700819
pKd: −log10 of the molar value.
metric-name: pKd

Req: Short answer please: pKd, HLA-A*02:03, entry "FTFERSKIK"
Resp: ≤ 4.70

====

target-of-assay: HLA-A*02:06
assay-procedure: IEDB peptide-MHC binding, purified MHC/competitive/fluorescence; filed as Kd, often an IC50 or EC50 that approximates it; bounds were set here for any values at or beyond the usual limits of such assays
reported-conditions: source organism: Human immunodeficiency virus type 1 (ELI ISOLATE)
pKd: −log10 of the molar value.
metric-name: pKd

Req: What value of pKd has been recorded for this entry: "FLGRIWPS"
Resp: ≥ 10.00

====

target-of-assay: HLA-B*51:01
assay-procedure: IEDB peptide-MHC binding, purified MHC/direct/fluorescence; filed as Kd, often an IC50 or EC50 that approximates it; bounds were set here for any values at or beyond the usual limits of such assays
reported-conditions: source organism: West Nile virus
metric-name: Kd

Req: Which Kd reading was recorded for the sequence "EIPDVLNSL" ?
Resp: ≥ 20 µM

====

target-of-assay: HLA-A*01:01
assay-procedure: IEDB peptide-MHC binding, purified MHC/competitive/fluorescence; filed as Kd, often an IC50 or EC50 that approximates it; bounds were set here for any values at or beyond the usual limits of such assays
reported-conditions: source organism: Vibrio vulnificus YJ016
pKd: −log10 of the molar value.
metric-name: pKd

Req: For the sequence "SVFELSNFA" , what pKd is on record?
Resp: ≤ 5.30

====

target-of-assay: HLA-B*15:01
assay-procedure: IEDB peptide-MHC binding, purified MHC/competitive/radioactivity; filed as Kd, often an IC50 or EC50 that approximates it; bounds were set here for any values at or beyond the usual limits of such assays
reported-conditions: source organism: Dengue virus 1 Brazil/97-11/1997
metric-name: pKd
Notebook: values listed as pKd are -log10 of the concentration (mol/L).

Req: pKd of "ISKIPGGNMY" on HLA-B*15:01?
Resp: 6.86

====

target-of-assay: HLA-A*11:01
assay-procedure: IEDB peptide-MHC binding, purified MHC/competitive/fluorescence; bounds were set here for any values at or beyond the usual limits of such assays
reported-conditions: source organism: Sudan ebolavirus
metric-name: IC50 (µM)
The answer is to be given in µM; state only the numeric part.

Req: Enter reported IC50 observed with HLA-A*11:01 for "QLNDTIHLH"
Resp: 6.06

====

target-of-assay: HLA-A*68:23
assay-procedure: IEDB peptide-MHC binding, purified MHC/competitive/fluorescence; filed as Kd, often an IC50 or EC50 that approximates it; bounds were set here for any values at or beyond the usual limits of such assays
reported-conditions: source organism: Cryptosporidium parvum Iowa II
metric-name: Kd (nM)
# output: bare number, implied unit nM

Req: What does the record list as Kd for "MPMSMPIPM" ?
Resp: 2.7

====

target-of-assay: HLA-A*24:02
assay-procedure: IEDB peptide-MHC binding, purified MHC/competitive/fluorescence; bounds were set here for any values at or beyond the usual limits of such assays
reported-conditions: source organism: Tarsius lariang
metric-name: IC50
Enter the number, and then the unit.

Req: # IC50 lookup, item "TEAEKWPFF"
Resp: 570 nM

====

target-of-assay: HLA-A*26:01
assay-procedure: IEDB peptide-MHC binding, purified MHC/competitive/fluorescence; filed as Kd, often an IC50 or EC50 that approximates it; bounds were set here for any values at or beyond the usual limits of such assays
reported-conditions: source organism: Hantavirus HPR/02-73
pKd: −log10 of the molar value.
metric-name: pKd

Req: What measured pKd goes with "WKAIGAYIL" ?
Resp: ≤ 4.70

====

The sequences listed here are annotated with their pKd.
target-of-assay: HLA-A*02:01
assay-procedure: IEDB peptide-MHC binding, purified MHC/direct/fluorescence; filed as Kd, often an IC50 or EC50 that approximates it; bounds were set here for any values at or beyond the usual limits of such assays
reported-conditions: source organism: Camelpox virus M-96
pKd: −log10 of the molar value.

[
  {
    "biosequence": "DILASIIDY",
    "observed": "≤ 4.70"
  }
]

Please examine the following record next.
Req: # query: pKd of entry "EIKDRILSY"
Resp: ≤ 4.70

====

target-of-assay: HLA-A*32:01
assay-procedure: IEDB peptide-MHC binding, purified MHC/competitive/radioactivity; filed as Kd, often an IC50 or EC50 that approximates it; bounds were set here for any values at or beyond the usual limits of such assays
reported-conditions: source organism: Dengue virus 4 Philippines/H241/1956
Reported pKd values are given for each entry in this list.
pKd (log units): -log10 of the concentration in mol/L.

[
  {
    "biosequence": "SKGWKNWQEV",
    "metric-name": "pKd",
    "observed": 4.70
  }
]

Field: next sequence
Req: Consider the sequence "WNTGFDWITD" and give its measured pKd.
Resp: 5.94

====

target-of-assay: HLA-B*08:01
assay-procedure: IEDB peptide-MHC binding, purified MHC/competitive/fluorescence; bounds were set here for any values at or beyond the usual limits of such assays
reported-conditions: source organism: Tarsius lariang
pIC50: −log10 of the molar value.
metric-name: pIC50

Req: Item under review: "TEAEKWPFF" . Reported pIC50?
Resp: ≤ 4.70

====

target-of-assay: HLA-A*31:01
assay-procedure: IEDB peptide-MHC binding, purified MHC/direct/fluorescence; filed as Kd, often an IC50 or EC50 that approximates it; bounds were set here for any values at or beyond the usual limits of such assays
reported-conditions: source organism: Camelpox virus M-96
Listed sequences paired with reported Kd

Consider the worked cases shown below.
[
  {
    "biosequence": "YPAVINSNI",
    "Kd": "≥ 20 µM"
  },
  {
    "biosequence": "DILASIIDY",
    "Kd": "≥ 20 µM"
  }
]

// next entry
Req: Quick one: Kd of "EIKDRILSY" ?
Resp: ≥ 20 µM

====

target-of-assay: HLA-B*44:02
assay-procedure: IEDB peptide-MHC binding, purified MHC/competitive/radioactivity; filed as Kd, often an IC50 or EC50 that approximates it; bounds were set here for any values at or beyond the usual limits of such assays
reported-conditions: source organism: Mammarenavirus guanaritoense
metric-name: Kd (nM)
Write it as a number; the unit nM goes unstated.

Req: Fill in: Kd of "TEQFINYCL" is ___
Resp: 100
